- study-target: Aβ1–42 fibrils (Homo sapiens, UniProt P05067)
- Sequence (P05067 672-713): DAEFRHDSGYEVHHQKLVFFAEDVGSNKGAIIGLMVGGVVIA
- assay-procedure: Aβ fibril destabilization assay
- Format: biochemical
- condition-set: 100 μM constituent, 50 μM Aβ1–42 fibrils, 37 °C, 5 h
recorded-endpoint: RFU of ThT during incubation with preformed Aβ1–42 fibrils

[
  {
    "mol-smiles": "CCCCC/C=C\\C/C=C\\C/C=C\\C/C=C\\CCCC(=O)O",
    "study-target": "Aβ1–42 fibrils (Homo sapiens, UniProt P05067)",
    "obs-value": "remained unchanged"
  },
  {
    "mol-smiles": "CC1=C(/C=C/C(C)=C/C=C/C(C)=C/C=C/C=C(C)/C=C/C=C(C)/C=C/C2=C(C)C[C@@H](O)CC2(C)C)C(C)(C)C[C@H](O)C1",
    "study-target": "Aβ1–42 fibrils (Homo sapiens, UniProt P05067)",
    "obs-value": "remained unchanged"
  },
  {
    "mol-smiles": "CC1=C[C@H](O)CC(C)(C)[C@H]1/C=C/C(C)=C/C=C/C(C)=C/C=C/C=C(C)/C=C/C=C(C)/C=C/C1=C(C)C[C@@H](O)CC1(C)C",
    "study-target": "Aβ1–42 fibrils (Homo sapiens, UniProt P05067)",
    "obs-value": "remained unchanged"
  }
]
